Source: patent US20260137790A1

condition label: human, in vivo, sc, 0.1 mg, M1 Cmax, geometric mean
Starred links: 1 amine or outer side, 2 acyl side, 3 side chain; linkers in the order of their positions; H or OH if unused. Positions of bridges follow the written chain, without caps; N, C: chain ends. Non-standard residues stand in square brackets, D forms with d. Residues, ends and D or L forms follow the SMILES beside them. Groups on a side chain read outwards from the residue. *: point of attachment. X1 = CC(=O)NCCCC[C@H](NC(=O)CC[C@H](N)C(N)=O)C(=O)*; εLys = N[C@@H](CCCCN[*:1])C(=O)[*:2]; Dab = NCC[C@H](N)C(=O)O
reported metric: Cmax

Fill in the blank: the reported Cmax of CC[C@H](C)[C@@H]1NC(=O)[C@H](Cc2ccccc2)NC(=O)[C@@H](N)CSSC[C@@H](C(=O)N2CCC[C@H]2C(=O)N[C@@H](CCNC(=O)[C@@H](N)CCCCNC(=O)[C@H](CCCCNC(C)=O)NC(=O)CC[C@H](N)C(N)=O)C(=O)NCC(N)=O)NC(=O)[C@H](CC(N)=O)NC(=O)[C@H](CCC(N)=O)NC1=O [Compound M1] (H-CFIQNCP[Dab]([εLys-X1])G-NH2; disulfide 1-6) is ____.
0.9 ng/mL

---

condition label: human, in vivo, sc, 0.3 mg, M1 tmax, mean
Starred links: 1 amine or outer side, 2 acyl side, 3 side chain; linkers in the order of their positions; H or OH if unused. Positions of bridges follow the written chain, without caps; N, C: chain ends. Non-standard residues stand in square brackets, D forms with d. Residues, ends and D or L forms follow the SMILES beside them. Groups on a side chain read outwards from the residue. *: point of attachment. X1 = CC(=O)NCCCC[C@H](NC(=O)CC[C@H](N)C(N)=O)C(=O)*; εLys = N[C@@H](CCCCN[*:1])C(=O)[*:2]; Dab = NCC[C@H](N)C(=O)O
reported metric: Tmax

Item under review: CC[C@H](C)[C@@H]1NC(=O)[C@H](Cc2ccccc2)NC(=O)[C@@H](N)CSSC[C@@H](C(=O)N2CCC[C@H]2C(=O)N[C@@H](CCNC(=O)[C@@H](N)CCCCNC(=O)[C@H](CCCCNC(C)=O)NC(=O)CC[C@H](N)C(N)=O)C(=O)NCC(N)=O)NC(=O)[C@H](CC(N)=O)NC(=O)[C@H](CCC(N)=O)NC1=O [Compound M1] (H-CFIQNCP[Dab]([εLys-X1])G-NH2; disulfide 1-6) . Reported Tmax?
48 min

---

condition label: human, in vivo, sc, 0.1 mg, M1 AUC, min
Starred links: 1 amine or outer side, 2 acyl side, 3 side chain; linkers in the order of their positions; H or OH if unused. Positions of bridges follow the written chain, without caps; N, C: chain ends. Non-standard residues stand in square brackets, D forms with d. Residues, ends and D or L forms follow the SMILES beside them. Groups on a side chain read outwards from the residue. *: point of attachment. X1 = CC(=O)NCCCC[C@H](NC(=O)CC[C@H](N)C(N)=O)C(=O)*; εLys = N[C@@H](CCCCN[*:1])C(=O)[*:2]; Dab = NCC[C@H](N)C(=O)O
reported metric: AUC (ng·h/mL)
Give bare numbers, in ng·h/mL.

Need AUC of CC[C@H](C)[C@@H]1NC(=O)[C@H](Cc2ccccc2)NC(=O)[C@@H](N)CSSC[C@@H](C(=O)N2CCC[C@H]2C(=O)N[C@@H](CCNC(=O)[C@@H](N)CCCCNC(=O)[C@H](CCCCNC(C)=O)NC(=O)CC[C@H](N)C(N)=O)C(=O)NCC(N)=O)NC(=O)[C@H](CC(N)=O)NC(=O)[C@H](CCC(N)=O)NC1=O [Compound M1] (H-CFIQNCP[Dab]([εLys-X1])G-NH2; disulfide 1-6) , thanks.
1.71

---

condition label: human, in vivo, sc, 0.1 mg, M1 tmax, min
Starred links: 1 amine or outer side, 2 acyl side, 3 side chain; linkers in the order of their positions; H or OH if unused. Positions of bridges follow the written chain, without caps; N, C: chain ends. Non-standard residues stand in square brackets, D forms with d. Residues, ends and D or L forms follow the SMILES beside them. Groups on a side chain read outwards from the residue. *: point of attachment. X1 = CC(=O)NCCCC[C@H](NC(=O)CC[C@H](N)C(N)=O)C(=O)*; εLys = N[C@@H](CCCCN[*:1])C(=O)[*:2]; Dab = NCC[C@H](N)C(=O)O
reported metric: Tmax (min)
One number for each entry, in min.

Which Tmax value belongs to CC[C@H](C)[C@@H]1NC(=O)[C@H](Cc2ccccc2)NC(=O)[C@@H](N)CSSC[C@@H](C(=O)N2CCC[C@H]2C(=O)N[C@@H](CCNC(=O)[C@@H](N)CCCCNC(=O)[C@H](CCCCNC(C)=O)NC(=O)CC[C@H](N)C(N)=O)C(=O)NCC(N)=O)NC(=O)[C@H](CC(N)=O)NC(=O)[C@H](CCC(N)=O)NC1=O [Compound M1] (H-CFIQNCP[Dab]([εLys-X1])G-NH2; disulfide 1-6) ?
18

---

condition label: human, in vivo, sc, 0.1 mg, M1 tmax, median
Starred links: 1 amine or outer side, 2 acyl side, 3 side chain; linkers in the order of their positions; H or OH if unused. Positions of bridges follow the written chain, without caps; N, C: chain ends. Non-standard residues stand in square brackets, D forms with d. Residues, ends and D or L forms follow the SMILES beside them. Groups on a side chain read outwards from the residue. *: point of attachment. X1 = CC(=O)NCCCC[C@H](NC(=O)CC[C@H](N)C(N)=O)C(=O)*; εLys = N[C@@H](CCCCN[*:1])C(=O)[*:2]; Dab = NCC[C@H](N)C(=O)O
reported metric: Tmax (min)
Answers are plain numbers, in min.

Requested read-out: Tmax. Entry: CC[C@H](C)[C@@H]1NC(=O)[C@H](Cc2ccccc2)NC(=O)[C@@H](N)CSSC[C@@H](C(=O)N2CCC[C@H]2C(=O)N[C@@H](CCNC(=O)[C@@H](N)CCCCNC(=O)[C@H](CCCCNC(C)=O)NC(=O)CC[C@H](N)C(N)=O)C(=O)NCC(N)=O)NC(=O)[C@H](CC(N)=O)NC(=O)[C@H](CCC(N)=O)NC1=O [Compound M1] (H-CFIQNCP[Dab]([εLys-X1])G-NH2; disulfide 1-6)
30

---

condition label: human, in vivo, sc, 0.1 mg, M1 t1/2, min
Starred links: 1 amine or outer side, 2 acyl side, 3 side chain; linkers in the order of their positions; H or OH if unused. Positions of bridges follow the written chain, without caps; N, C: chain ends. Non-standard residues stand in square brackets, D forms with d. Residues, ends and D or L forms follow the SMILES beside them. Groups on a side chain read outwards from the residue. *: point of attachment. X1 = CC(=O)NCCCC[C@H](NC(=O)CC[C@H](N)C(N)=O)C(=O)*; εLys = N[C@@H](CCCCN[*:1])C(=O)[*:2]; Dab = NCC[C@H](N)C(=O)O
reported metric: half-life (h)
One number for each entry, in h.

Quick one: half-life for CC[C@H](C)[C@@H]1NC(=O)[C@H](Cc2ccccc2)NC(=O)[C@@H](N)CSSC[C@@H](C(=O)N2CCC[C@H]2C(=O)N[C@@H](CCNC(=O)[C@@H](N)CCCCNC(=O)[C@H](CCCCNC(C)=O)NC(=O)CC[C@H](N)C(N)=O)C(=O)NCC(N)=O)NC(=O)[C@H](CC(N)=O)NC(=O)[C@H](CCC(N)=O)NC1=O [Compound M1] (H-CFIQNCP[Dab]([εLys-X1])G-NH2; disulfide 1-6) ?
1

---

condition label: human, in vivo, sc, 0.3 mg, M1 tmax
Starred links: 1 amine or outer side, 2 acyl side, 3 side chain; linkers in the order of their positions; H or OH if unused. Positions of bridges follow the written chain, without caps; N, C: chain ends. Non-standard residues stand in square brackets, D forms with d. Residues, ends and D or L forms follow the SMILES beside them. Groups on a side chain read outwards from the residue. *: point of attachment. X1 = CC(=O)NCCCC[C@H](NC(=O)CC[C@H](N)C(N)=O)C(=O)*; εLys = N[C@@H](CCCCN[*:1])C(=O)[*:2]; Dab = NCC[C@H](N)C(=O)O
reported metric: Tmax

Look at this molecule and give its reported Tmax. CC[C@H](C)[C@@H]1NC(=O)[C@H](Cc2ccccc2)NC(=O)[C@@H](N)CSSC[C@@H](C(=O)N2CCC[C@H]2C(=O)N[C@@H](CCNC(=O)[C@@H](N)CCCCNC(=O)[C@H](CCCCNC(C)=O)NC(=O)CC[C@H](N)C(N)=O)C(=O)NCC(N)=O)NC(=O)[C@H](CC(N)=O)NC(=O)[C@H](CCC(N)=O)NC1=O [Compound M1] (H-CFIQNCP[Dab]([εLys-X1])G-NH2; disulfide 1-6)
0.5 to 1.5 h
